Molecular target: unphosphorylated STAT3 monomer (uSTAT3) SH2 domain (Homo sapiens, UniProt P40763)
Sequence (P40763 whole entry, the tested form may be a part): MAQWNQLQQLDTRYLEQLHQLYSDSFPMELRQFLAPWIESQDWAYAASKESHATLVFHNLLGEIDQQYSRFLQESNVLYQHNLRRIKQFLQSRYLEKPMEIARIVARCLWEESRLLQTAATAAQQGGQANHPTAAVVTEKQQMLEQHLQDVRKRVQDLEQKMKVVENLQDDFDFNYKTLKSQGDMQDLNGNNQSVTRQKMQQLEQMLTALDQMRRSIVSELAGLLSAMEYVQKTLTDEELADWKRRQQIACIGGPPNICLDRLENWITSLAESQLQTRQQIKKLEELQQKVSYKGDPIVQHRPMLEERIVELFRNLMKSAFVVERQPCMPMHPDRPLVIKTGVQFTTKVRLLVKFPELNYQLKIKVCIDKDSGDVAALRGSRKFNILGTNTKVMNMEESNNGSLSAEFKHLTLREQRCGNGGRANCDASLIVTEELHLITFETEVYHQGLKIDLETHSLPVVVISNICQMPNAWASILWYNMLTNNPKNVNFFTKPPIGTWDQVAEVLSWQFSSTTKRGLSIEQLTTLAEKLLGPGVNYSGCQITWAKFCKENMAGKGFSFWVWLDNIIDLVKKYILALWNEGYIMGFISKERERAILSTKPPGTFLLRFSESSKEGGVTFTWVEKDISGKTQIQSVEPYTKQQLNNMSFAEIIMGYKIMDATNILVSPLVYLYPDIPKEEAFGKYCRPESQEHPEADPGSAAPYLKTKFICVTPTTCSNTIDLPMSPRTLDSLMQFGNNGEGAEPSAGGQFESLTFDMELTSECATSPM
Test: Fluorescence polarisation assay for the inhibition of STAT3 dimerisation
Type: binding
Settings: 350 nM uSTAT3, 10 nM FAM-pYLPQTV, 100 μM ligand; average of triplicate
Reported inhibition at 100 µM values are given for each entry in this list.
Numbers only; they are read as %.

Check out these entries, answers already filled in.
{"Compound": "COC(=O)c1ccc(N(C)S(=O)(=O)c2cc(C(=O)NCc3ccc(N4CCCCC4)cc3)sc2Br)cc1 [Compound 26]", "inhibition at 100 µM, %": 8.24}
{"Compound": "COC(=O)c1ccc(N(C)S(=O)(=O)c2cc(C(=O)NCc3ccc(CN4CCCC4)cc3)sc2Br)cc1 [Compound 37]", "inhibition at 100 µM, %": 30.2}
{"Compound": "COC(=O)c1ccc(N(C)S(=O)(=O)c2cc(C(=O)Nc3ccc4c(ccn4C)c3)sc2Br)cc1 [Compound 36]", "inhibition at 100 µM, %": 29.1}
{"Compound": "COC(=O)c1ccc(N(C)S(=O)(=O)c2cc(C(=O)Nc3cccc(N4CCCCC4)c3)sc2-c2ccc(N3CCCCC3)cc2)cc1 [Compound 19]", "inhibition at 100 µM, %": 43.7}
{"Compound": "COC(=O)c1ccc(N(C)S(=O)(=O)c2cc(C(=O)NCc3ccc(CN4CCCCC4)cc3)sc2-c2ccnc(N3CCN(C)CC3)c2)cc1 [Compound 5]", "inhibition at 100 µM, %": 46.9}

Reported inhibition at 100 µM ( COC(=O)c1ccc(N(C)S(=O)(=O)c2cc(C(=O)NCc3ccc(CN4CCCCC4)cc3)sc2-c2ccc(C(=O)N3CCN(C)CC3)cc2)cc1 [Compound 7] ) = 40.6

Record summary for COC(=O)c1ccc(N(C)S(=O)(=O)c2cc(C(=O)Nc3ccc(N4CCCCC4)cc3)sc2-c2ccc(N3CCCCC3)cc2)cc1 [Compound 18] : reported inhibition at 100 µM = 45.8

* * *

System: MDA-MB-231 breast (STAT3-dependent) cancer cell line
Assay: MTT cell viability assay, MDA-MB-231
Format: cell-based, human
Settings: STAT3-null A4 versus STAT3-dependent MDA-MB-231
Readout: Selectivity ratio
Just the number, please, no unit after it.

Worked cases, answers included:
{"Molecule": "COC(=O)c1ccc(N(C)S(=O)(=O)c2cc(C(=O)Nc3ccc(N4CCCCC4)cc3)sc2Br)cc1", "Selectivity ratio": 2.75}
{"Molecule": "COC(=O)c1ccc(N(C)S(=O)(=O)c2cc(C(=O)NCc3ccc(CN4CCOCC4)cc3)sc2Br)cc1", "Selectivity ratio": 0.76}

GET /value?item= C[C@@H]1CC(=O)c2c(ccc3c2C(=O)c2cccc(O)c2C3=O)C1 [STA-21, reference compound] &field=Selectivity ratio returns 3.5

get_value(item= "COC(=O)c1ccc(N(C)S(=O)(=O)c2cc(C(=O)Nc3ccc(OCCN4CCOCC4)cc3)sc2-c2ccc(N3CCOCC3)cc2)cc1" , readout=Selectivity ratio) returns 31.21

Record "COC(=O)c1ccc(N(C)S(=O)(=O)c2cc(C(=O)NCc3ccc(CN4CCCCC4)cc3)sc2-c2ccnc(N3CCN(C)CC3)c2)cc1" , field Selectivity ratio: 23.62

* * *

Tested on: MDA-MB-231 breast (STAT3-dependent) cancer cell line
Assay: MTT cell viability assay, MDA-MB-231
Assay type: cell-based, human
Conditions: STAT3-null A4 versus STAT3-dependent MDA-MB-231
Rule: Selectivity ratio below 6 gives T, anything at or above gives F.

{"Smiles str": "COC(=O)c1ccc(N(C)S(=O)(=O)c2cc(C(=O)NCc3ccc(CN4CCCC4)cc3)sc2Br)cc1", "Category": "F"}
{"Smiles str": "COC(=O)c1ccc(N(C)S(=O)(=O)c2cc(C(=O)Nc3ccc4c(ccn4Cc4ccccc4)c3)sc2-c2ccc(N3CCCCC3)cc2)cc1", "Category": "T"}
{"Smiles str": "COC(=O)c1ccc(N(C)S(=O)(=O)c2cc(C(=O)NCc3ccc(N4CCN(C)CC4)cc3)sc2-c2ccc(N3CCCCC3)cc2)cc1", "Category": "F"}

Req: Is Selectivity ratio strictly under 6 for the entry "COC(=O)c1ccc(N(C)S(=O)(=O)c2cc(C(=O)Nc3ccc(N4CCCCC4)cc3)sc2-c2ccc(N3CCCCC3)cc2)cc1" ?
Resp: F

Req: Does the reported Selectivity ratio of "COC(=O)c1ccc(N(C)S(=O)(=O)c2cc(C(=O)Nc3ccc4c(ccn4C)c3)sc2Br)cc1" stay below 6?
Resp: T

Req: For this compound, is Selectivity ratio lower than 6? "COC(=O)c1ccc(N(C)S(=O)(=O)c2cc(C(=O)Nc3ccc(N4CCOCC4)nc3)sc2Br)cc1"
Resp: T

* * *

Listed next: entries and their corresponding inhibition at 100 µM.
Molecular target: unphosphorylated STAT3 monomer (uSTAT3) SH2 domain (Homo sapiens, UniProt P40763)
Assay: Fluorescence polarisation assay for the inhibition of STAT3 dimerisation
Type: binding
Settings: 350 nM uSTAT3, 10 nM FAM-pYLPQTV, 100 μM ligand; average of triplicate
Respond with the bare value in %.

{"Compound": "COC(=O)c1ccc(N(C)S(=O)(=O)c2cc(C(=O)Nc3ccc(OCCN4CCOCC4)cc3)sc2-c2ccc(N3CCN(C)CC3)nc2)cc1 [Compound 11]", "Readout units": "%", "Result": 58.3}

As a next step, examine the compound that follows.
Summary for this compound, COC(=O)c1ccc(N(C)S(=O)(=O)c2cc(C(=O)Nc3ccc(OCCN4CCOCC4)cc3)sc2-c2ccc(C(=O)N3CCOCC3)cc2)cc1 [Compound 12] : inhibition at 100 µM is 59.4

* * *

Target: unphosphorylated STAT3 monomer (uSTAT3) SH2 domain (Homo sapiens)
Assay: Fluorescence polarisation assay for the inhibition of STAT3 dimerisation
Format: binding
Settings: 350 nM uSTAT3, 10 nM FAM-pYLPQTV, 100 μM ligand; average of triplicate
From the text: Fluorescence Polarisation Assay for the Inhibition of STAT3 Dimerisation The compounds were subjected to an in vitro fluorescent polarisation (FP)-based primary PPI binding screen to assess their ability to inhibit STAT3 dimerisation by interacting with the SH2 domain. […] The assay is based on the concept that the compounds were expected to displace the surrogate peptide from the uSTAT3 resulting in a fluorescent read out. […]
Below: a set of entries, each annotated with reported inhibition at 100 µM.
State the answer as a number, implicitly in %.

Recorded inhibition at 100 µM, per entry:
{"Compound": "COC(=O)c1ccc(N(C)S(=O)(=O)c2cc(C(=O)Nc3ccc(OCCN4CCOCC4)cc3)sc2-c2ccnc(N3CCNCC3)c2)cc1", "Experimental system": "unphosphorylated STAT3 monomer (uSTAT3) SH2 domain (Homo sapiens)", "Result": 33.3}
{"Compound": "C[C@@H]1CC(=O)c2c(ccc3c2C(=O)c2cccc(O)c2C3=O)C1 [STA-21, reference compound]", "Experimental system": "unphosphorylated STAT3 monomer (uSTAT3) SH2 domain (Homo sapiens)", "Result": 32.3}
{"Compound": "COC(=O)c1ccc(N(C)S(=O)(=O)c2cc(C(=O)Nc3ccc(Cc4nc5cc(C)ccc5[nH]4)cc3)sc2Br)cc1", "Experimental system": "unphosphorylated STAT3 monomer (uSTAT3) SH2 domain (Homo sapiens)", "Result": 35.4}

Field inhibition at 100 µM (entry "Cc1ccc(-c2sc(C(=O)NCc3cccs3)cc2S(=O)(=O)N2CCCC2)cc1" ) reads 24.2

Field inhibition at 100 µM (entry "COC(=O)c1ccc(N(C)S(=O)(=O)c2cc(C(=O)Nc3ccc(OCCN4CCOCC4)cc3)sc2-c2ccnc(N3CCN(C)CC3)c2)cc1" ) reads 56.2

The compound "COC(=O)c1ccc(N(C)S(=O)(=O)c2cc(C(=O)Nc3cccc(-c4csc(C)n4)c3)sc2Br)cc1" showed inhibition at 100 µM equal to 29.2

* * *

Documented Selectivity ratio across a set of compounds
Test system: MDA-MB-231 breast (STAT3-dependent) cancer cell line
Test: MTT cell viability assay, MDA-MB-231
Format: cell-based, human
Conditions: STAT3-null A4 versus STAT3-dependent MDA-MB-231
Give the value as a plain number.

Some entries whose results are on file:
{"Smiles str": "COC(=O)c1ccc(N(C)S(=O)(=O)c2cc(C(=O)Nc3cccc(N4CCCCC4)c3)sc2-c2ccc(N3CCCCC3)cc2)cc1", "Experimental system": "MDA-MB-231 breast (STAT3-dependent) cancer cell line", "Result": 10.81}
{"Smiles str": "COC(=O)c1ccc(N(C)S(=O)(=O)c2cc(C(=O)Nc3cccc(N4CCCCC4)c3)sc2Br)cc1", "Experimental system": "MDA-MB-231 breast (STAT3-dependent) cancer cell line", "Result": 6.56}
{"Smiles str": "COC(=O)c1ccc(N(C)S(=O)(=O)c2cc(C(=O)Nc3cccc(-c4csc(C)n4)c3)sc2Br)cc1", "Experimental system": "MDA-MB-231 breast (STAT3-dependent) cancer cell line", "Result": 4.67}
{"Smiles str": "COC(=O)c1ccc(N(C)S(=O)(=O)c2cc(C(=O)Nc3cccc(N4CCOCC4)c3)sc2Br)cc1", "Experimental system": "MDA-MB-231 breast (STAT3-dependent) cancer cell line", "Result": 2.13}
{"Smiles str": "COC(=O)c1ccc(N(C)S(=O)(=O)c2cc(C(=O)NCc3ccc(N4CCCCC4)cc3)sc2Br)cc1", "Experimental system": "MDA-MB-231 breast (STAT3-dependent) cancer cell line", "Result": 1.77}

Record "COC(=O)c1ccc(N(C)S(=O)(=O)c2cc(C(=O)Nc3ccc(OCCN4CCOCC4)cc3)sc2-c2ccnc(N3CCN(C)CC3)c2)cc1" . Reported Selectivity ratio: 40.01

Per the records, this compound ( "COC(=O)c1ccc(N(C)S(=O)(=O)c2cc(C(=O)NCc3ccc(CN4CCCCC4)cc3)sc2-c2ccc(C(=O)N3CCN(C)CC3)cc2)cc1" ) has Selectivity ratio equal to 10.01

GET /value?item= "COC(=O)c1ccc(N(C)S(=O)(=O)c2cc(C(=O)Nc3ccc(OCCN4CCOCC4)cc3)sc2-c2ccc(C(=O)N3CCN(C)CC3)cc2)cc1" &field=Selectivity ratio returns 8.45

Record "COC(=O)c1ccc(N(C)S(=O)(=O)c2cc(C(=O)Nc3ccc4[nH]c(Cc5ccccc5)nc4c3)sc2Br)cc1" . Reported Selectivity ratio: 8.69

Recorded result, "COC(=O)c1ccc(N(C)S(=O)(=O)c2cc(C(=O)Nc3ccc(OCCN4CCOCC4)cc3)sc2-c2ccc(C#N)cc2)cc1" , Selectivity ratio: 32.36

Looking up "COC(=O)c1ccc(N(C)S(=O)(=O)c2cc(C(=O)Nc3ccc(Cc4nc5cc(C)ccc5[nH]4)cc3)sc2Br)cc1" , I found its Selectivity ratio recorded as 8.93

The compound listed as "COC(=O)c1ccc(N(C)S(=O)(=O)c2cc(C(=O)NCc3ccc(N4CCN(C)CC4)cc3)sc2Br)cc1" has a reported Selectivity ratio of 9.73

The recorded Selectivity ratio for "COC(=O)c1ccc(N(C)S(=O)(=O)c2cc(C(=O)NCc3ccc(CN4CCCCC4)cc3)sc2-c2ccc(N3CCOCC3)cc2)cc1" is 28.13

Selectivity ratio for "COC(=O)c1ccc(N(C)S(=O)(=O)c2cc(C(=O)NCc3ccc(N4CCOCC4)cc3)sc2Br)cc1" is 0.96
